Cited source: patent US20240343803A1

# studySystem: T1, human PVRIG on FlpinCHO-PVRIG cells (human, UniProt Q6DKI7 41-326)
# T1 construct: whole, on cells
# T1 sequence (looked up): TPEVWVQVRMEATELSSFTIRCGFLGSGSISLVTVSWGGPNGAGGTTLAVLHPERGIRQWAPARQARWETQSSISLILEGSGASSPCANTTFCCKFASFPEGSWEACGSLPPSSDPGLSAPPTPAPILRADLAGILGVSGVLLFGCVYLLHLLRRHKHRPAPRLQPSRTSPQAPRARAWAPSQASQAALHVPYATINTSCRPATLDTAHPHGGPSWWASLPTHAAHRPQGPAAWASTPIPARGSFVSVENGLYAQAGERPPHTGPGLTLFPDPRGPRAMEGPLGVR
# assayDetails: FACS, FlpinCHO-PVRIG cells
This listing pairs binders with measured AUC % to SRF813-hIgG1.
Record the value in %, omitting the unit from your answer.

PVRIG-A118-H2 (Fc fusion, humanized variant of PVRIG-A118; also called A118.VH2; not shown: constant part not restated for the humanized forms; parents are VHH-hinge-CH2-CH3 of human IgG1; detected by anti-human) EVQLVESGGGLVQPGGSLRLSCAASETYFDLYVMGWYRQAPGKDRELVATITYTGSIKYVDSVKGRFTISRDNAKNSLYLQMNSLRAEDTAVYYCNADPSGLGRKVYWGQGTMVTVSS : 174
PVRIG-A105 (Fc fusion, heavy chain antibody VHH-hinge-CH2-CH3, human IgG1 constant part; not shown: human IgG1 hinge-CH2-CH3) EVQLVESGGGLVQAGGSLRLSCAASGRTFDRHTMTWFRQAPGKEREFVATASRIPGDTYYSHSVKGRFTISRDNAKNTVYLQLNNLKPEDTAVYYCAATSAYCSEVDCYEKGSWYDNWGQGIQVTVSS : 186
PVRIG-A105-H4 (Fc fusion, humanized variant of PVRIG-A105; also called A105.VH4; not shown: constant part not restated for the humanized forms; parents are VHH-hinge-CH2-CH3 of human IgG1; detected by anti-human) EVQLVESGGGLVQPGGSLRLSCAASGRTFDRHTMTWFRQAPGKEREFVATASRIPGDTYYSHSVKGRFTISRDNAKNSLYLQMNSLRAEDTAVYYCAATSAYCSEVDCYEKGSWYDNWGQGTMVTVSS : 174

IN: What does the data say about its AUC % to SRF813-hIgG1? Entry: PVRIG-A118 (Fc fusion, heavy chain antibody VHH-hinge-CH2-CH3, human IgG1 constant part; not shown: human IgG1 hinge-CH2-CH3) QVQLVESGGGLVQAGGSLRLSCAASETYFDLYVMGWYRQAPGKDRELVATITYTGSIKIVDSVKDRFTISRGDAKNTVSLQMSSLKPEDTAVYFCNADPSGLGRKVYWGQGTQVTVSS
OUT: 191
